Would you kindly list Kd for each of these molecules?
# testTarget: Influenza A virus M2 proton channel (A/TW/4845/1999 H1N1)
# test: M2 proton channel binding, NMR based, influenza A virus H1N1 strain (AID 1549)
# testContext: NMR binding screen, M2 protein
Active and inactive are the calls of the source. How the calls were made is not given here.

Given item `O=C(O)CCN1CCOCC1` , the value recorded as its Kd is > 4 mM (inactive)

Given item `COCC(=O)/C=C1\Sc2ccccc2N1C` , the value recorded as its Kd is > 4 mM (inactive)

Given item `Nc1nc(CSc2ncn(-c3ccccc3)n2)cs1` , the value recorded as its Kd is > 4 mM (inactive)

Given item `CNC(=O)C(=O)Nc1ccc(C)c(C)c1` , the value recorded as its Kd is > 4 mM (inactive)

Given item `C(=Nn1cnnc1)c1ccccc1` , the value recorded as its Kd is > 4 mM (inactive)

Given item `Nc1c(C(=O)O)sc2ncccc12` , the value recorded as its Kd is > 4 mM (inactive)

Given item `COc1ccc(C(=O)CC(=O)O)c2c1C=CC(C)(C)O2` , the value recorded as its Kd is > 4 mM (inactive)

Given item `O=C1c2ccncc2C(=O)N1CO` , the value recorded as its Kd is > 4 mM (inactive)

Given item `Nc1nnc(SCc2ccc(F)cc2)s1` , the value recorded as its Kd is > 4 mM (inactive)

Given item `O=C(O)CN1C(=O)c2ccc(C(=O)O)cc2C1=O` , the value recorded as its Kd is > 4 mM (inactive)

Given item `Cc1nn(-c2ccccc2)nc1C(=O)O` , the value recorded as its Kd is > 4 mM (inactive)

Given item CC(O)c1ccc(C(C)O)cc1 (stereo not drawn) , the value recorded as its Kd is > 4 mM (inactive)

Given item `CC(=O)Nc1cccc(-c2nc3ccccc3c(=O)o2)c1` , the value recorded as its Kd is > 4 mM (inactive)

Given item `O=C(Nc1nnc(C(F)(F)F)s1)c1cccnc1` , the value recorded as its Kd is > 4 mM (inactive)

Given item `O=C(Nc1ccc2c(c1)OCO2)c1cccc(F)c1` , the value recorded as its Kd is > 4 mM (inactive)

Given item `O=c1cnnc(SCCc2ccccc2)[nH]1` , the value recorded as its Kd is > 4 mM (inactive)

Given item S=C(NCC1CCCO1)NC1CC1 (stereo not drawn) , the value recorded as its Kd is > 4 mM (inactive)

Given item CC(C)=CCC[C@](C)(O)C1CC=C(C)CC1 (stereo partly drawn) , the value recorded as its Kd is > 4 mM (inactive)

Given item `O=C1NC(=S)N/C1=C\c1ccccc1` , the value recorded as its Kd is > 4 mM (inactive)

Given item `CC(=O)c1cc2c(cc1O)OC(C)(C)C=C2` , the value recorded as its Kd is > 4 mM (inactive)

Given item `N=Nc1c(O)[nH]c2ccccc12` , the value recorded as its Kd is > 4 mM (inactive)

Given item `NCc1ccc(-n2cccc2)cc1` , the value recorded as its Kd is > 4 mM (inactive)

Given item `Nc1ccc2c(c1)OCCO2` , the value recorded as its Kd is > 4 mM (inactive)

Given item `O=C(NCc1ccco1)c1cccc(F)c1` , the value recorded as its Kd is > 4 mM (inactive)

Given item `O=C(c1ccccc1)c1ccccc1C(=O)N1CCCC1` , the value recorded as its Kd is > 4 mM (inactive)

Given item `O=c1ccnc(Nc2ccccc2O)[nH]1` , the value recorded as its Kd is > 4 mM (inactive)

Given item CCN1C[C@@]2(COC)C3[C@@H](OC)[C@H]4[C@@H]1[C@]3(C(OC)C[C@H]2O)C1C[C@@]2(O)[C@H](OC(=O)c3ccccc3)C1[C@]4(OC(C)=O)[C@@H](O)[C@@H]2OC (stereo partly drawn) , the value recorded as its Kd is > 4 mM (inactive)

Given item `O=C(O)c1ccc2[nH]c3c(c2c1)CSCC3` , the value recorded as its Kd is > 4 mM (inactive)

Given item `CN(C)Cc1c(N)cccc1O` , the value recorded as its Kd is > 4 mM (inactive)

Given item `Cn1nnc2cc(C(=O)O)ccc21` , the value recorded as its Kd is > 4 mM (inactive)

Given item `CN1CCN(Cc2cccnc2)CC1` , the value recorded as its Kd is > 4 mM (inactive)

Given item `OCc1ccc2nsnc2c1` , the value recorded as its Kd is > 4 mM (inactive)

Given item `COc1ccc(N2CC(=O)NC2=O)cc1` , the value recorded as its Kd is > 4 mM (inactive)

Given item `c1n[nH]cc1-c1cn[nH]c1` , the value recorded as its Kd is > 4 mM (inactive)

Given item `c1ccc2nc3c(nc2c1)CCc1nonc1-3` , the value recorded as its Kd is > 4 mM (inactive)

Given item `COc1c(C)c2c(c(O)c1C/C=C(\C)CCC(=O)O)C(=O)OC2` , the value recorded as its Kd is > 4 mM (inactive)

Given item `OC[C@H]1O[C@@H](O[C@H]2[C@H](O)[C@@H](O)[C@@H](O)O[C@@H]2CO)[C@H](O)[C@@H](O)[C@@H]1O` , the value recorded as its Kd is > 4 mM (inactive)

Given item `O=C(NC(=S)NCCO)c1ccccc1` , the value recorded as its Kd is > 4 mM (inactive)

Given item `Cc1cc(NC(=O)CSc2ccnc(=O)[nH]2)no1` , the value recorded as its Kd is > 4 mM (inactive)

Given item `Cc1cccc(N2CCN(C(=O)c3ccncc3)CC2)c1C` , the value recorded as its Kd is > 4 mM (inactive)

Given item `CN1CCN(S(=O)(=O)c2ccc(=O)[nH]c2)CC1` , the value recorded as its Kd is > 4 mM (inactive)

Given item `O=c1[nH]c2sc3c(c2c2ncnn12)CCCC3` , the value recorded as its Kd is > 4 mM (inactive)

Given item `Cc1cc(C(=O)O)n[nH]1` , the value recorded as its Kd is > 4 mM (inactive)

Given item CC(Sc1ncn[nH]1)C(=O)O (stereo not drawn) , the value recorded as its Kd is > 4 mM (inactive)

Given item `COc1ccccc1-c1nc(-c2ccc(C)nc2OC)no1` , the value recorded as its Kd is > 4 mM (inactive)

Given item `Cc1ccc(C)c(C(=O)NCc2ccncc2)c1` , the value recorded as its Kd is > 4 mM (inactive)

Given item `CC1(C)C=Cc2c(cc3occ(-c4ccc5c(c4)OCO5)c(=O)c3c2O)O1` , the value recorded as its Kd is > 4 mM (inactive)

Given item CC(=O)Oc1c2c(c3c(c1CC=C(C)C)O[C@]14C(=C[C@@H]5CC1C(C)(C)OC4(C/C=C(\C)C(=O)O)C5=O)C3=O)OC(C)(CCC=C(C)C)C=C2 (stereo partly drawn) , the value recorded as its Kd is > 4 mM (inactive)

Given item `COc1cc2c(cc1OC)[C@@H]1C(=O)c3ccc4oc(C(C)C)cc4c3O[C@@H]1CO2` , the value recorded as its Kd is > 4 mM (inactive)

Given item `c1ccc(-c2csc3ncn4nnnc4c23)cc1` , the value recorded as its Kd is > 4 mM (inactive)

Given item `CSc1ncnc2nc[nH]c12` , the value recorded as its Kd is > 4 mM (inactive)

Given item `c1cncc(-c2nnc(-c3cccnc3)nn2)c1` , the value recorded as its Kd is > 4 mM (inactive)

Given item `O=C1NC(=O)C(Cc2ccccc2)C(=O)N1` , the value recorded as its Kd is > 4 mM (inactive)

Provenance of the data: PubChem BioAssay AID1549
